# Target or test system: T1, Human CD98 ECD with N-terminal His-tag (human, UniProt P08195 105-529)
# T1 construct: The entry includes the linker and the polyhistidine tag; also called huCD98 ECD
# T1 sequence: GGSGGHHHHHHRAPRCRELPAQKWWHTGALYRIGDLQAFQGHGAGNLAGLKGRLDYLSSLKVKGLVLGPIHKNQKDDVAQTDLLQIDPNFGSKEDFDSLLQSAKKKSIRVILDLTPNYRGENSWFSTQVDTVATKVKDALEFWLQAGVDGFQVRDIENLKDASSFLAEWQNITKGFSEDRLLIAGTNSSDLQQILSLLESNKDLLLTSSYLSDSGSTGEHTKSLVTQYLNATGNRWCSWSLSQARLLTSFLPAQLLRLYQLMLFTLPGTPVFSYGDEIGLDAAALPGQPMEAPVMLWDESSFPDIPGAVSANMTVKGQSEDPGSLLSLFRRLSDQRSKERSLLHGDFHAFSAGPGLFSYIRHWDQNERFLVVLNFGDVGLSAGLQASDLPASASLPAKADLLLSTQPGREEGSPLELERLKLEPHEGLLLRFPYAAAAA
# Test summary: SPR (Biacore), recombinant CD98 ECD
Parameter: kon (M⁻¹ s⁻¹)
Numeric answer only, unit M⁻¹ s⁻¹ assumed.

Before answering, review these 2 worked examples.
Binder	Reading unit	Observed measurement
huAb101 (antibody, V domains shown, Framework re-engineered humanized clone (parent huAb3v1), expressed as full-length IgG) VH: EVQLVESGGGLVKPGGSLRLSCATSGFTFIDYYMSWVRQAPGKGLEWLGFIRNKANRYTTEYSASVKGRFTISRDNSKSILYLQMNSLKTEDTAVYYCTRDRPAWFVYWGQGTLVTVSS VL: DIVMTQTPLSLPVTPGEPASISCKSSQSLLYSSNQKNYLAWYLQKPGQSPQLLIYWASTRESGVPDRFSGSGSGTDFTLKISRVEAEDVGVYYCQQYYSYPYTFGGGTKVEIK	M⁻¹ s⁻¹	290000
huAb102 (antibody, human IgG1, kappa, L234A L235A, V domains shown, Framework re-engineered humanized clone (parent huAb3v1); also called CL-huAb102) VH: EVQLVESGGGLVQPGGSLRLSCATSGFTFIDYYMSWVRQAPGKGLEWLGFIRNKANRYTTEYSASVKGRFTISRDNSKSILYLQMNSLKTEDTAVYYCTRDRPAWFVYWGQGTLVTVSS VL: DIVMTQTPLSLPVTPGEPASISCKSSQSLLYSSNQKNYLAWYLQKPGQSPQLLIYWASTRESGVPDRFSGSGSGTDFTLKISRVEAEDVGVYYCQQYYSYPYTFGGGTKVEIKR	M⁻¹ s⁻¹	330000

Next binder, kon to be filled in.
Q: Fill in reported kon for this entry: huAb107 (antibody, V domains shown, Framework re-engineered humanized clone (parent huAb15v2), expressed as full-length IgG) VH: EVQLVESGGGLVQPGGSLRLSCAASGFTFSDYTMAWVRQAPGKGLEWVATIIYSGRGTYYRDAVKGRFTISRDNAKNTLYLQMNSLRAEDTAVYYCARQSDDTYYYWGYFDYWGQGTMVTVSS VL: DIVMTQTPLSLPVTPGEPASINCKSSQSLLFSGNQKNYLAWYLQKPGQSPQLLIYWASTRQSGVPDRFSGSGSGTDFTLKISRVEAEDVGIYYCQQYYDVPYTFGQGTKLEIK
Ans: 110000
